Examples of molecules with documented growth inhibition follow.
- PROTOCOL: NCI Yeast Anticancer Drug Screen. Data for the cln2 rad14 strain (AID 165);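 also: 0% = growth equal to vehicle treated cultures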
- CONDITION_SET: S. cerevisiae cln2 rad14 strain, at 50.0 µM (retest, dose inferred, filed as 5.0), active compounds read high
About 79,000 compounds went through this panel and 15% of them were active in at least one assay; those are over-represented in the sample as a whole.
Please state the figure in %; there is no need to write the unit.

These solved cases illustrate the format of a correct answer.
* CC(=O)OC1CCC2(C)C(CCC3C2CCC2(C)C4CCC32OC(=O)C4CC(=O)O)C1 (centres undefined) | 49
* CCCC(=O)Oc1c(Br)cc(Br)cc1Br | -19
* CCC/C(=N\NC(=S)N(C)C)c1ccccn1 | 99
* Cc1nnc(NS(=O)(=O)c2ccc(N=Nc3cc(N=Nc4ccc(S(=O)(=O)Nc5nnc(C)s5)cc4)c4c(NC(=O)C(Cl)Cl)cccc4c3OC(=O)C(Cl)Cl)cc2)s1 (tested in a mixture with another compound) | 6
* O=C1c2ccccc2C(=O)c2sc(Nc3cc(Cl)ccc3Cl)nc21 | 97

### Prompt Recorded growth inhibition of N#CSCCl , please.
### Response 61

### Prompt Moving on to the next molecule: CC(=O)O[C@@H]1c2c(c3c(=O)c4cccc(O)c4c(=O)c=3c2=[N+]=[N-])[C@H](OC(C)=O)[C@@H](OC(C)=O)[C@]1(C)O
### Response 99

### Prompt And what about the molecule CCn1c2nc(=O)n(C)c(=O)c-2[n+]([O-])c2cc(C)ccc21 ?
### Response 7

### Prompt Repeat with CCN(CC)c1ccc(NC(C(=O)c2ccc(Cl)cc2)c2ccc(Cl)cc2)cc1 (centres undefined)
### Response -11
